Can you tell me GI50 for the items I'm about to list?
Tested on: 786-0 renal
Assay: NCI tumour cell line growth inhibition, 48 h

GI50 reported for this compound CCNc1nc(-c2ccc(Cl)c(OC)c2)c(-c2ccnc(NCCNS(=O)(=O)c3ccc(Cl)cc3)n2)s1 : 3.46 µM

GI50 reported for this compound COc1ccc(-c2ccc(/C=N/n3c(COc4ccc(Cl)c(C)c4)nn(CN4CCOCC4)c3=S)o2)c([N+](=O)[O-])c1 : 32.5 µM

GI50 reported for this compound CN1CCN(Cc2ccc(NC(=O)c3cncc(C#Cc4cnc5cccnn45)c3)cc2C(F)(F)F)CC1 : 1.14 µM

GI50 reported for this compound Brc1ccc2c(c1)-c1ccccc1C1=NCCN12 : 1.61 µM

GI50 reported for this compound CC(C)=NO.CC(C)=NO.CC(C)=NO.CC(C)=NO.[Ti] : > 100 µM

GI50 reported for this compound CC(=O)Nc1ccc(C(=O)COc2cccc(/C=C3\CCc4ccccc4C3=O)c2)cc1 : 26.5 µM

GI50 reported for this compound O=C1C(=O)c2c(ccc3ccccc23)-c2ccccc21 : 3.13 µM

GI50 reported for this compound CN(C)C(=O)c1cc2cnc(Nc3ccc(N4CCNCC4)cn3)nc2n1C1CCCC1 : 11.4 µM

GI50 reported for this compound Cn1c(=O)c(Oc2ccc(F)cc2F)cc2cnc(NC3CCC(O)CC3)nc21 (stereo not drawn) : > 25 µM

GI50 reported for this compound CCn1c(SC)nnc1-c1cc2c([nH]c3ccccc32)c(-c2cccc(O)c2)n1 : 2.77 µM

GI50 reported for this compound Oc1ccc(CCNc2nc3ccccc3c3[nH]c4ccccc4c23)cc1 : 1.29 µM

GI50 reported for this compound c1csc(-c2[nH]nc3c2CCc2ccccc2-3)c1 : 21.3 µM

GI50 reported for this compound O=C(NCc1cccnc1)c1ccc([N+](=O)[O-])o1 : 2.9 µM
